# measured-on: CDK2/Cyclin E1 (Homo sapiens, UniProt P24941)
# assay-name: CDK2/Cyclin E1 Biochemical Assay (TR-FRET), 0.060 mM ATP
# particulars: 0.15 μM Rb (Ser780)-biotin substrate, pH7.0, 60 min preincubation, 120 min reaction, room temperature
Here, each record is paired with measured log10 IC50 data.
Each number you see is log10 of IC50, and the unit inside the log is nM.

compound	recorded-value
[2H]C([2H])([2H])N1Cc2c(ccc(Nc3cc([C@@H]4CC[C@H](OC(=O)NCCC)C4)[nH]n3)c2F)S1(=O)=O (relative stereo)	0.76

[ask] Give log10 IC50 for COCC1(NC(=O)O[C@H]2CC[C@@H](c3cc(Nc4ccc5c(c4F)CNS5(=O)=O)n[nH]3)C2)CC1 (racemic) [Example 158]
[reply] 0.49

[ask] Give the measured log10 IC50 for CC(C)NC(=O)O[C@H]1CC[C@@H](c2cc(Nc3ccc4c(c3F)CN(C3CCOC3)S4(=O)=O)n[nH]2)C1 (relative stereo)
[reply] 0.98

[ask] Give the value of log10 IC50 reported for the following: CC(C)NC(=O)O[C@H]1CC[C@@H](c2cc(Nc3ccc4c(c3F)S(=O)(=O)N(C)C4)n[nH]2)C1 (relative stereo)
[reply] 0.91

[ask] Specify reported log10 IC50 for the compound shown: CCCNC(=O)O[C@H]1CC[C@@H](c2cc(Nc3ccc4c(c3F)CS(=O)(=O)N4C3CC3)n[nH]2)C1 (relative stereo)
[reply] 0.70

[ask] Given the compound CC(C)NC(=O)O[C@H]1CC[C@@H](c2cc(Nc3ccc4c(c3)CS(=O)(=O)N4CC(F)(F)F)n[nH]2)C1 (relative stereo) , write its reported log10 IC50.
[reply] 0.88

[ask] Specify reported log10 IC50 for the compound shown: CN1c2ccc(Nc3cc([C@@H]4CC[C@H](OC(=O)N[C@H]5CC[C@@H](O)CC5)C4)[nH]n3)c(F)c2CS1(=O)=O (relative stereo)
[reply] 0.97

[ask] Please give the documented log10 IC50 of CC1(NC(=O)O[C@H]2CC[C@@H](c3cc(Nc4ccc5c(c4F)CNS5(=O)=O)n[nH]3)C2)CCC1 (relative stereo)
[reply] -0.10

[ask] Report measured log10 IC50; entry is [2H]C([2H])([2H])N1c2ccc(Nc3cc([C@@H]4CC[C@H](OC(=O)NC(C)C)C4)[nH]n3)c(F)c2CS1(=O)=O (single isomer, unassigned) [Example 267b]
[reply] 0.81

[ask] Provide only the value of recorded log10 IC50 for O=C(NC1CCC1)O[C@H]1CC[C@@H](c2cc(Nc3ccc4c(c3)CS(=O)(=O)N4)n[nH]2)C1 (single isomer, unassigned) [Example 380a]
[reply] 0.20

[ask] Complete the entry with log10 IC50 for CC(C)NC(=O)O[C@H]1CC[C@@H](c2cc(Nc3ccc4c(c3F)CN(CCC3CCOCC3)S4(=O)=O)n[nH]2)C1 (relative stereo)
[reply] 0.98

[ask] Quick one: give measured log10 IC50 for COCC1(NC(=O)O[C@H]2CC[C@@H](c3cc(Nc4ccc5c(c4F)CNS5(=O)=O)n[nH]3)C2)CC1 (single isomer, unassigned) [Example 158a]
[reply] 0.72

###

Overview of recorded log10(IC50) for various compounds
# measured-on: CDK2/Cyclin E1 (Homo sapiens)
# assay-name: CDK2/Cyclin E1 Biochemical Assay (TR-FRET), 0.060 mM ATP
# particulars: 0.15 μM Rb (Ser780)-biotin substrate, pH7.0, 60 min preincubation, 120 min reaction, room temperature
A difference of one corresponds to tenfold IC50; all values are log10 with IC50 in nM.

Worked cases, log10(IC50) given:
compound	recorded-value
CC(C)NC(=O)O[C@H]1CC[C@@H](c2cc(Nc3ccc4c(c3F)CN(C3CCN(Cc5ccccc5)CC3)S4(=O)=O)n[nH]2)C1 (relative stereo)	1.36
CC(C)(C)NC(=O)O[C@@H]1CC[C@H](c2cc(Nc3ccc4c(c3)CS(=O)(=O)N4)n[nH]2)C1 [Example 403a]	0.00
CC1(NC(=O)O[C@H]2CC[C@@H](c3cc(Nc4ccc5c(c4F)CS(=O)(=O)N5CC(F)(F)F)n[nH]3)C2)CC1 (single isomer, unassigned) [Example 264b]	0.04
CN1Cc2c(ccc(Nc3cc([C@@H]4CC[C@H](OC(=O)NC5(C)CC5)C4)[nH]n3)c2F)S1(=O)=O (relative stereo)	0.20
CC(C)NC(=O)O[C@H]1CC[C@@H](c2cc(Nc3ccc4c(c3F)S(=O)(=O)NC4)n[nH]2)C1 (single isomer, unassigned) [Example 186a]	0.68

[ask] State its log10(IC50) for this compound: CCCNC(=O)O[C@H]1CC[C@@H](c2cc(Nc3ccc4c(c3F)CS(=O)(=O)N4C3COC3)n[nH]2)C1 (racemic) [Example 260]
[reply] 0.51

###

# measured-on: CDK1/Cyclin B1 (Homo sapiens, UniProt P06493)
# Sequence (P06493 whole entry): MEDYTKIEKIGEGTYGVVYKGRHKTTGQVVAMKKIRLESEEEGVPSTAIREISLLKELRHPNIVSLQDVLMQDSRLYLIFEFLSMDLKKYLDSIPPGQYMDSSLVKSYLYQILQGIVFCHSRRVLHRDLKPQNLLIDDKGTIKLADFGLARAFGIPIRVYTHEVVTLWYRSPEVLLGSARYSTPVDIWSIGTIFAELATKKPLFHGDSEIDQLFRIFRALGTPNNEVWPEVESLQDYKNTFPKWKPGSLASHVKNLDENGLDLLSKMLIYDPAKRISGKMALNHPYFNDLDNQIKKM
# Sequence (P14635 whole entry partner): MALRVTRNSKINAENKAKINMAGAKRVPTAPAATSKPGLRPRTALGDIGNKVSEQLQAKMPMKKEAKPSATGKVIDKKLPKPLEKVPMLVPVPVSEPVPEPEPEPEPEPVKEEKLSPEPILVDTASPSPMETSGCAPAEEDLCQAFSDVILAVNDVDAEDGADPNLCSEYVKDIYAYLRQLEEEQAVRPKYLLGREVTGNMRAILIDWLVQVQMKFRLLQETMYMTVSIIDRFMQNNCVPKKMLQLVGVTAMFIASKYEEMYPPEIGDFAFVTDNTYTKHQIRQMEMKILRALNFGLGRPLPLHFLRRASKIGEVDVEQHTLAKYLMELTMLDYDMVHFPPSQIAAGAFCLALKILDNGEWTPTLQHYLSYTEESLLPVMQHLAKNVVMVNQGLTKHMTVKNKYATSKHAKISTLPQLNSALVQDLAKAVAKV
# assay-name: CDK1/Cyclin B1 Biochemical Assay (TR-FRET), 0.015 mM ATP
# particulars: 0.15 μM Rb (Ser780)-biotin substrate, pH7.0, 60 min preincubation, 120 min reaction, room temperature
Threshold 70 nM. IC50 below it: Condition met. IC50 at it or above: Condition not met.

Some solved entries appear below for comparison.
molecule	class-assignment
CN1c2ccc(Nc3cc([C@@H]4CC[C@H](OC(=O)NC5CCC5)C4)[nH]n3)cc2CS1(=O)=O (single isomer, unassigned) [Example 227a]	Condition not met
CC[C@H](C)NC(=O)O[C@H]1CC[C@@H](c2cc(Nc3ccc4c(c3F)C(C)(C)NS4(=O)=O)n[nH]2)C1 (relative stereo) [Example 57]	Condition not met
CC1NS(=O)(=O)c2ccc(Nc3cc([C@@H]4CC[C@H](OC(=O)NC5(C)CC5)C4)[nH]n3)cc21 (single isomer, unassigned) [Example 322b]	Condition met

Switching to the query record.
[ask] Problem: For the molecule CC[C@H](C)NC(=O)O[C@H]1CC[C@@H](c2cc(Nc3ccc4c(c3F)CS(=O)(=O)N4CC(F)(F)F)n[nH]2)C1 (single isomer, unassigned) [Example 265a] , is IC50 under 70 nM?
[reply] Condition met

###

# measured-on: CDK1/Cyclin B1 (Homo sapiens, UniProt P06493)
# assay-name: CDK1/Cyclin B1 Biochemical Assay (TR-FRET), 0.015 mM ATP
# particulars: 0.15 μM Rb (Ser780)-biotin substrate, pH7.0, 60 min preincubation, 120 min reaction, room temperature
# Description: CDK2/Cyclin E1 and CDK1/Cyclin B1 Biochemical Assays Compounds disclosed herein were tested for inhibition of CDK2/Cyclin E1 or CDK1/Cyclin B1 kinase in an assay based on the time-resolved fluorescence-resonance energy transfer (TR-FRET) methodology. […] Plates were incubated at room temperature for 60 minutes, and the TR-FRET signals (ex337 nm, em665 nm/620 nm) were recorded on a PHERAstar FSX plate reader (BMG Labtech). […]
measure-name: IC50

molecule	recorded-value
CC(C)NC(=O)O[C@H]1CC[C@@H](c2cc(Nc3ccc4c(c3CO)CNS4(=O)=O)n[nH]2)C1 (relative stereo)	1730 nM
CC(C)NC(=O)O[C@H]1CC[C@@H](c2cc(Nc3ccc4c(c3F)CN(C3COC3)S4(=O)=O)n[nH]2)C1 (single isomer, unassigned) [Example 133b]	456 nM
CC(C)(C)NC(=O)O[C@@H]1CC[C@H](c2cc(Nc3cc4c(cc3F)S(=O)(=O)NC4)n[nH]2)C1 (single isomer, unassigned) [Example 395a]	191 nM
CCCNC(=O)O[C@@H]1CC[C@H](c2cc(Nc3ccc4c(c3F)CS(=O)(=O)N4CC(F)(F)F)n[nH]2)C1 [Example 266a]	96 nM
CC(C)NC(=O)O[C@H]1CC[C@@H](c2cc(Nc3ccc4c(c3)C(C)S(=O)(=O)N4)n[nH]2)C1 (single isomer, unassigned) [Example 384b]	191 nM
CC(C)NC(=O)O[C@H]1CC[C@@H](c2cc(Nc3cc(F)c4c(c3)CS(=O)(=O)N4C)n[nH]2)C1 (relative stereo)	149 nM
CC(C)NC(=O)O[C@H]1CC[C@@H](c2cc(Nc3ccc4c(c3F)CN(C[C@@H](N)C(C)(C)C)S4(=O)=O)n[nH]2)C1 (relative stereo)	1910 nM
CN1c2ccc(Nc3cc([C@@H]4CC[C@H](OC(=O)N[C@H]5CC[C@@H](O)CC5)C4)[nH]n3)c(F)c2CS1(=O)=O (relative stereo)	411 nM
CCCNC(=O)O[C@H]1CC[C@@H](c2cc(Nc3ccc4c(c3F)CS(=O)(=O)N4C3CC3)n[nH]2)C1 (relative stereo)	111 nM
CC(C)NC(=O)O[C@H]1CC[C@@H](c2cc(Nc3ccc4c(c3F)CS(=O)(=O)N4CC(F)(F)F)n[nH]2)C1 (single isomer, unassigned) [Example 263a]	70 nM

[ask] For the molecule CC(C)NC(=O)O[C@H]1CC[C@@H](c2cc(Nc3ccc4c(c3F)CN(CC3CCCCC3)S4(=O)=O)n[nH]2)C1 (relative stereo) , report IC50.
[reply] > 10000 nM

[ask] Indicate the recorded IC50 value for this molecule: CC(NC(=O)O[C@H]1CC[C@@H](c2cc(Nc3ccc4c(c3F)CN(C3CC3)S4(=O)=O)n[nH]2)C1)C1COC1 (relative stereo)
[reply] 817 nM

[ask] Consider the molecule CCCNC(=O)O[C@H]1CC[C@@H](c2cc(Nc3ccc4c(c3F)CS(=O)(=O)N4)n[nH]2)C1 (single isomer, unassigned) [Example 387b] . State its measured IC50.
[reply] 37 nM

[ask] Note IC50 for the molecule shown: CCCNC(=O)O[C@H]1CC[C@@H](c2cc(Nc3ccc4c(c3F)CN(CCO)S4(=O)=O)n[nH]2)C1 (relative stereo)
[reply] 261 nM

[ask] Recall and state the measured IC50 for CC(C)(CO)NC(=O)O[C@H]1CC[C@@H](c2cc(Nc3ccc4c(c3F)CNS4(=O)=O)n[nH]2)C1 (relative stereo) .
[reply] 175 nM

[ask] Complete the entry with IC50 for CC1(NC(=O)O[C@H]2CC[C@@H](c3cc(Nc4ccc5c(c4)CCS(=O)(=O)N5)n[nH]3)C2)CC1 (racemic) [Example 249]
[reply] 29 nM

[ask] Determine its reported IC50: CC(C)NC(=O)O[C@H]1CC[C@@H](c2cc(Nc3ccc4c(c3F)CN(C[C@H](N)C(C)(C)C)S4(=O)=O)n[nH]2)C1 (relative stereo)
[reply] 529 nM

[ask] Give me measured IC50, please, for this molecule: CC1(NC(=O)O[C@H]2CC[C@@H](c3cc(Nc4cc5c(cc4F)NS(=O)(=O)C5)n[nH]3)C2)CC1 (relative stereo)
[reply] 426 nM

[ask] Determine from records and report IC50 for CC(C)NC(=O)O[C@H]1CC[C@@H](c2cc(Nc3ccc4c(c3)CS(=O)(=O)N4C3CC3)n[nH]2)C1 (relative stereo)
[reply] 41 nM
